test: drug combination growth inhibition, ovarian cancer – cell-based, oncology-focused library, rucaparib conditional, profiling panel (AID 1508598); details: patient-derived ovarian cancer cells, CellTiter-Glo viability, 144 h; at 0.0781 µM; OCI-C5x cells; without rucaparib; active compounds read low
PROPERTY: viability (%)
Please state the figure in %; there is no need to write the unit.

Answered examples (3):
MOLECULE | viability (%)
N[C@@H]1CCCN(c2c(/C=C3\SC(=O)NC3=O)cccc2-c2ccccc2)C1 | 115
C=CS(=O)(=O)NC1CCN(C(=O)CNc2cc(I)c(Cl)cc2OC)CC1 | 107
COc1cc(=C2C=c3ccccc3=N2)[nH]/c1=C\c1[nH]c(C)cc1C | 79.1

The record that follows has no viability shown yet.
# input Sample CC[C@]1(O)C[C@@H]2CN(CCc3c([nH]c4ccccc34)[C@@](C(=O)OC)(c3cc4c(cc3OC)N(C=O)[C@@H]3C45CCN4CC=C[C@](CC)([C@H]45)[C@H](OC(C)=O)[C@]3(O)C(=O)OC)C2)C1 (some centres undefined) — what was its viability?
# output 37.2
